# EXPERIMENTAL DETAILS: Protein binding in rat plasma
# Type: ADME, cell-free
# ASSAY CONTEXT: read-out: PPB (converted)
MEASURE: fraction unbound

>  <QUERY SMILES>
FC(F)(F)c1c(N2CCC(c3ccccc3)CC2)ccn2c(CC3CC3)nnc12

>  <MEASURE>
fraction unbound

>  <READOUT VALUE>
0.0035

$$$$

###

# SYSTEM UNDER TEST: hERG (Homo sapiens)
# Sequence (Q12809 whole entry): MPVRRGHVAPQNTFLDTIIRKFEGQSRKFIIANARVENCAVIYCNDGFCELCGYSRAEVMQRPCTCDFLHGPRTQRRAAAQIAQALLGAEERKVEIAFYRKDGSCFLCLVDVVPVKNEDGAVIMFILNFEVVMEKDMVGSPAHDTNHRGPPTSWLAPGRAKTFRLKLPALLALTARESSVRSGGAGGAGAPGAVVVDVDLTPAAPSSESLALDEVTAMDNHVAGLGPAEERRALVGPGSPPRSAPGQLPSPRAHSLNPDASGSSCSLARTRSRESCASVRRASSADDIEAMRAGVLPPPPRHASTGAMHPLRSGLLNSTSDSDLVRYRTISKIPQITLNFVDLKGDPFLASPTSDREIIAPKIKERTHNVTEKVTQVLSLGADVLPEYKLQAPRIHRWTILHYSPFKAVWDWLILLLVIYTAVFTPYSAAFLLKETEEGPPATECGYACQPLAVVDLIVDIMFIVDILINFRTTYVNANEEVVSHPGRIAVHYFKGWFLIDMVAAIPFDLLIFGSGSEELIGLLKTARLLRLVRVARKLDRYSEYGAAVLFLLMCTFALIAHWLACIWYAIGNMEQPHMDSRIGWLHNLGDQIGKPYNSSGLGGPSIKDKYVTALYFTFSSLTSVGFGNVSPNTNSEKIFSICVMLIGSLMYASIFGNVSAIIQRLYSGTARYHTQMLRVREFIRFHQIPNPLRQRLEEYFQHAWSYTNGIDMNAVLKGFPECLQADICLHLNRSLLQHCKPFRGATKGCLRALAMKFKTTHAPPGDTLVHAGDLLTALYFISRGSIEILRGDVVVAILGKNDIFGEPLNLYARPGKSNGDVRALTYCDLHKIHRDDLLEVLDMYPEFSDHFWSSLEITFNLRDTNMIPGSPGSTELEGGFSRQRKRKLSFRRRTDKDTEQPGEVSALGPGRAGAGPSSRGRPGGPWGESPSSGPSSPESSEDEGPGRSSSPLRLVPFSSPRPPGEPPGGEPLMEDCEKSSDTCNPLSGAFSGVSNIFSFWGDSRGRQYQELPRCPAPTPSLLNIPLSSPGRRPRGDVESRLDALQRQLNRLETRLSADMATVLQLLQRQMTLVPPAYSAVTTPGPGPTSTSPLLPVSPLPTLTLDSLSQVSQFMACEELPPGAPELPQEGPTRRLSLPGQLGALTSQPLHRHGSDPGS
# EXPERIMENTAL DETAILS: Inhibition of human ERG expressed in HEK293 cells at 3 uM by patch clamp assay
# Type: cell-based
# ASSAY CONTEXT: HEK293 cells expressing hERG
MEASURE: inhibition at 3 µM (%)

>  <QUERY SMILES>
FC(F)(F)C1(c2ccccc2)CCN(c2ccn3c(CC4CC4)nnc3c2Cl)CC1

>  <MEASURE>
inhibition at 3 µM

>  <UNIT ABBREVIATION>
%

>  <READOUT VALUE>
42

$$$$
>  <QUERY SMILES>
FC(F)(F)Cc1nnc2c(Cl)c(N3CCC(F)(c4ccccc4)CC3)ccn12

>  <MEASURE>
inhibition at 3 µM

>  <UNIT ABBREVIATION>
%

>  <READOUT VALUE>
42

$$$$
>  <QUERY SMILES>
Clc1c(N2CCC(c3ccccc3)CC2)ccn2c(CC3CC3)nnc12

>  <MEASURE>
inhibition at 3 µM

>  <UNIT ABBREVIATION>
%

>  <READOUT VALUE>
99

$$$$
>  <QUERY SMILES>
CCc1nnc2c(Cl)c(N3CCC(c4ccccc4)CC3)ccn12

>  <MEASURE>
inhibition at 3 µM

>  <UNIT ABBREVIATION>
%

>  <READOUT VALUE>
43

$$$$
>  <QUERY SMILES>
CCc1nnc2c(C(F)(F)F)c(N3CCC(c4ccccc4)CC3)ccn12

>  <MEASURE>
inhibition at 3 µM

>  <UNIT ABBREVIATION>
%

>  <READOUT VALUE>
36

$$$$
>  <QUERY SMILES>
FC(F)(F)c1c(N2CCC(F)(c3ccccc3)CC2)ccn2c(CC3CC3)nnc12

>  <MEASURE>
inhibition at 3 µM

>  <UNIT ABBREVIATION>
%

>  <READOUT VALUE>
84

$$$$
>  <QUERY SMILES>
CCc1nnc2c(C#N)c(N3CCC(c4ccccc4)CC3)ccn12

>  <MEASURE>
inhibition at 3 µM

>  <UNIT ABBREVIATION>
%

>  <READOUT VALUE>
20

$$$$
